experiment: protein stability index of a GFP-peptide fusion (GPS, HEK-293T) (PSI 1-6); higher = more stable; conditions: treatment: MLN4924 1 uM, 8 h; c terminus: a fixed tail appended;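 also: 24-mer peptide tiles fused after GFP, lentivirally expressed, FACS-sorted into six equal bins by GFP/DsRed ratio, decoded by Illumina sequencing, PSI is the read-weighted mean bin number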
# protein stability index listing for each entry below
Parameter measured: protein stability index

INSERT INTO assay_data (chain_sequence, readout_value) VALUES
  ('IKRAEDYGPVEVISHWHPNITINI [CLPTM1]', 2.68),
  ('TWHDERFLYMLMEYVPGGELFSYL [PRKX]', 2.75),
  ('EPSSPASLTDSVNHHSPGGSSDAS [ESRRG]', 5.51),
  ('GARLVAACSAWLCPGLRLPGSLAG [AUH]', 3.26),
  ('PGPGGTMKRHSSRDAAGKPQRPRS [FCHO1]', 5.12),
  ('NALSKSSAPPITPECRQVLKTSRK [CHGB]', 4.77),
  ('LFQTHENREHLVMMEKILGPIPSH [CLK3]', 3.1),
  ('CHEDVEALAAIYEEKEAWYREESD [DAPK3]', 5.12),
  ('HTSSEYDMLREMFSDSRSNNDDDE [TAF7L]', 5.24),
  ('ERCLSCILAQQPDRLRDEELAELE [TRADD]', 4.19),
  ('FRKDSVLNILIQSLDWETFEQYCA [INTS3]', 2.04),
  ('LRSCYFSDPDCSMRPTLIDLLPTF [FBXO39]', 2.2),
  ('NCRLQSPYFSPSASFHHKLHHKRL [CBY2]', 2.33);

====

test: protein stability index of a GFP-peptide fusion (GPS, HEK-293T) (PSI 1-6); higher = more stable; settings: treatment: DMSO; c terminus: a fixed tail appended
protein stability index listing for selected sequences.
Parameter measured: protein stability index

INSERT INTO assay_data (chain_sequence, parameter_measured, readout_value) VALUES
  ('AAVAQKPRSHFTTPAPMSSAWKTV [MYBL2]', 'protein stability index', 3.06),
  ('HRGLRCSWEGLAVLDSLLLTLLPQ [RSAD1]', 'protein stability index', 3.06),
  ('AADIVNFLTVGSVLQMWHIVDKCT [ZBTB22]', 'protein stability index', 3.24),
  ('SQMVSTDNSLSSQNYISQKEDASE [MIA2]', 'protein stability index', 5.29),
  ('RELKAKLSGVEEELQRTKQEVLSL [SASS6]', 'protein stability index', 4.47),
  ('EACLVAQCDALIDALNRRKAQLLA [TRIM9]', 'protein stability index', 2.46),
  ('EFVTLKAIALANSDSMHIEDVEAV [ESRRG]', 'protein stability index', 3.39),
  ('FTLNPDKKTCRRINYCALNKPGCE [MATN2]', 'protein stability index', 2.64),
  ('ALVAAGGAPEDDEEDDGRGRGLLR [DENND6A]', 'protein stability index', 5.5),
  ('DRPRCCLRGKECCINRFQQVESRW [BTBD1]', 'protein stability index', 2.89),
  ('SLTDSVNHHSPGGSSDASGSYSST [ESRRG]', 'protein stability index', 4.99),
  ('PKAQPQTWKSGKQTMLSHYRPFYV [TRIM29]', 'protein stability index', 2.57),
  ('IYAYDAKIEIQTLTGLFKGDKCHS [CASP6]', 'protein stability index', 2.14),
  ('LICAISHTHRAHTVVPLDDATQEY [TRIM39]', 'protein stability index', 2.59),
  ('DFGSAAASGSFPSQVTATSGNGDF [CLINT1]', 'protein stability index', 4.95),
  ('VHQRTHTGEKPHTCSECGKGFIQK [ZNF649]', 'protein stability index', 3.67),
  ('LSNLVGKPSENHPLHNSGLLSLDP [MED27]', 'protein stability index', 3.87),
  ('LSVAPQIGMPFNQLGTLAGSKYYN [SMG5]', 'protein stability index', 2.67),
  ('ELVSVEDLLKFEKKFQSEKAAGSV [FIS1]', 'protein stability index', 3.58),
  ('IDKSMTVVLTFITPMLNPLIYTLK [OR4A15]', 'protein stability index', 3.67),
  ('AVPTDEARAFAEKNGLSFIETSAL [RAB11A]', 'protein stability index', 2.9),
  ('TSGKRYVYRFVCDLQNLLGFTPEE [ETS2]', 'protein stability index', 2.56),
  ('IKRAEDYGPVEVISHWHPNITINI [CLPTM1]', 'protein stability index', 3.11),
  ('SYSRLCRESGAEPQEAVLQQLHQL [LRRC45]', 'protein stability index', 3.71),
  ('DNHMSDKDESCYDNAEAAFSDDEE [INTS3]', 'protein stability index', 5.55),
  ('FRKDSVLNILIQSLDWETFEQYCA [INTS3]', 'protein stability index', 2.51),
  ('PKNGRHAWIWHDCHRHYHSMEVFT [LOXL2]', 'protein stability index', 2.28),
  ('PDNEQLMEEVISPRQVSYTPQHHE [IQUB]', 'protein stability index', 5.16),
  ('MDRRSRAQQWRRARHNYNDLCPPI [GNAS]', 'protein stability index', 2.92),
  ('GERVAARGYWGDIATGPFVAFGIE [DNAAF3]', 'protein stability index', 2.05),
  ('NYTNPLKVQTVIILGKVILWILHL [TMEM192]', 'protein stability index', 2.08),
  ('VLENNLEAVARHMLIFSLALEEPE [DNAAF3]', 'protein stability index', 2.74),
  ('AGNCPECGTPLRKSNFRVQLFEDP [MNAT1]', 'protein stability index', 3.62);

Entry source: the supplement of paper PMC10567573
